tested.target: Epstein-Barr virus nuclear antigen 1 (EBNA-1) DNA-binding domain
test.method.notes: blockers of EBV EBNA-1 DNA binding, IC50 – biochemical, fluorescence polarization, dose response, powder samples, late-stage follow-up (AID 489000)
protocol.conditions: Recombinant EBNA-1 DBD, Cy5-DNA fluorescence polarization
The source made the active and inactive calls.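 How the source made its calls: active means IC50 for blocking EBNA-1 binding to its DNA probe at or below 10 µM; inactive means the rest.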

compound: Cc1cc(C(=O)CSc2nnnn2-c2ccccc2)c(C)n1C
IC50: inactive

compound: CS(=O)(=O)c1ccc2nc(NC(=O)c3ccccc3Cl)sc2c1
IC50: > 148 µM (inactive)

compound: Cc1ccc(C(=O)Nc2nc3ccc(Br)cc3s2)cc1C
IC50: > 148 µM (inactive)

compound: CS(=O)(=O)c1ccc2nc(NC(=O)c3ccc(Cl)cc3)sc2c1
IC50: inactive

compound: COc1ccccc1C(=O)Nc1nc2ccc(S(C)(=O)=O)cc2s1
IC50: > 148 µM (inactive)

compound: Cc1cc(C(=O)CSc2nnnn2-c2ccccc2)c(C)n1Cc1cccs1
IC50: > 148 µM (inactive)

compound: COc1ccc(-n2nnnc2SCC(=O)c2cc(C)n(CC3CCCO3)c2C)cc1 (centres undefined)
IC50: > 16.4 µM (inactive)

compound: Cc1ccccc1-n1nnnc1SCC(=O)c1cc(C)n(CC2CCCO2)c1C (centres undefined)
IC50: > 148 µM (inactive)

compound: CS(=O)(=O)c1ccc2nc(NC(=O)c3cccc(F)c3)sc2c1
IC50: > 148 µM (inactive)

compound: O=C(CSc1nnnn1-c1ccccc1)c1ccn(CC2CCCO2)c1 (centres undefined)
IC50: > 148 µM (inactive)

compound: Cc1cc(C(=O)CSc2nnnn2C)c(C)n1CC1CCCO1 (centres undefined)
IC50: > 148 µM (inactive)

compound: Cc1cc(C(=O)CSc2nnnn2-c2cccc(F)c2)c(C)n1CC1CCCO1 (centres undefined)
IC50: > 148 µM (inactive)

compound: COc1ccc2nc(NC(=O)c3ccc(C)c(C)c3)sc2c1
IC50: > 148 µM (inactive)

compound: Cc1cccc(C(=O)Nc2nc3ccc(S(C)(=O)=O)cc3s2)c1
IC50: inactive

compound: Cc1ccccc1C(=O)Nc1nc2ccc(S(C)(=O)=O)cc2s1
IC50: > 148 µM (inactive)

compound: COc1ccc2sc(NC(=O)c3ccc(C)c(C)c3)nc2c1
IC50: > 148 µM (inactive)

compound: Cc1cc(C(=O)CSc2nnnn2C2CC2)c(C)n1CC1CCCO1 (centres undefined)
IC50: inactive

compound: CS(=O)(=O)c1ccc2nc(NC(=O)c3cccc(Cl)c3)sc2c1
IC50: > 148 µM (inactive)

compound: Cc1cc(C(=O)CSc2nnnn2-c2ccc(Cl)cc2)c(C)n1CC1CCCO1 (centres undefined)
IC50: > 148 µM (inactive)

compound: COc1cccc2sc(NC(=O)c3ccc(C)c(C)c3)nc12
IC50: > 148 µM (inactive)

compound: CCn1c(C)cc(C(=O)CSc2nnnn2-c2ccccc2)c1C
IC50: > 148 µM (inactive)

compound: CS(=O)(=O)c1ccc2nc(NC(=O)c3ccccc3F)sc2c1
IC50: > 148 µM (inactive)

compound: Cc1ccc(C(=O)Nc2nc3cc(Br)ccc3s2)cc1C
IC50: > 148 µM (inactive)

compound: Cc1ccc(C(=O)Nc2nc3ccc(S(C)(=O)=O)cc3s2)cc1
IC50: > 148 µM (inactive)

compound: COc1cccc(C(=O)Nc2nc3ccc(S(C)(=O)=O)cc3s2)c1
IC50: inactive

compound: COCCn1c(C)cc(C(=O)CSc2nnnn2-c2ccccc2)c1C
IC50: > 148 µM (inactive)

compound: Cc1cccc(-n2nnnc2SCC(=O)c2cc(C)n(CC3CCCO3)c2C)c1 (centres undefined)
IC50: > 148 µM (inactive)

compound: COc1ccc(C(=O)Nc2nc3ccc(S(C)(=O)=O)cc3s2)cc1
IC50: inactive

compound: Cc1ccc(C(=O)Nc2nc3cc(F)ccc3s2)cc1C
IC50: > 148 µM (inactive)
